- TARGET_OR_SYSTEM: platelet derived growth factor PDGF-BB (UniProt P01127 82-190)
- Sequence (P01127 82-190 limits assumed): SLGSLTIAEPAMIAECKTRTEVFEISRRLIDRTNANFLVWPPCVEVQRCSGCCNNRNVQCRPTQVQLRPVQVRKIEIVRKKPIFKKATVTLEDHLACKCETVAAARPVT
- TEST_METHOD_NOTES: cell-based or functional assay
Positions of bridges follow the written chain, without caps; N, C: chain ends. Non-standard residues stand in square brackets, D forms with d. d2Nal = N[C@H](Cc1ccc2ccccc2c1)C(=O)O
EXPERIMENTAL_READOUT: IC50, p42/Erk2 (µM)
Dear colleague, please return just the value in µM, with no unit written.

- BINDER: "GDSD (designed binder, linker N-C via 3‑aminomethyl‑5‑aminobenzamide; also: four loops on But-Calix calix[4]arene scaffold) [GFB-113]"
  IC50, p42/Erk2, µM: 30
- BINDER: "GDND (designed binder, linker N-C via 3‑aminomethyl‑5‑aminobenzamide; also: four loops on But-Calix scaffold) [GFB-117]"
  IC50, p42/Erk2, µM: 36

Then there is this binder:
Incoming: Query: IC50, p42/Erk2; subject: [d2Nal]DGD (designed binder, linker N-C via 3‑aminomethyl‑5‑aminobenzamide; also: four loops joined to But-Calix calix[4]arene scaffold) [GFB-118]
Outgoing: 1.2
